Value source: PubChem BioAssay (NCI)

- System: SN12C renal
- PROCEDURE DETAILS: NCI tumour cell line growth inhibition, 48 h
Where a SMILES comes first, the peptide text is derived from it. [ ]: non-standard residue; d: D form.
Please respond with reported TGI for every item in the list.

# query: TGI of entry CCC[CH2][Sn]1([CH2]CCC)[O]C(=O)c2cccc([N+](=O)[O-])c2C(=O)[O]1 2.15 µM

Input CC1Cc2c(Cl)ncnc2N(C)c2ccccc21 (stereo unspecified) 15.5 µM

Input CCN1CCN(C(=O)[C@]23CC[C@@H](C)[C@H](C)[C@@H]2C2=CC[C@@H]4[C@@]5(C)CCC(=O)C(C)(C)[C@@H]5CC[C@@]4(C)[C@]2(C)CC3)CC1 1.48 µM

Input C/C(=N\N=C(N)N)C(CN1CCOCC1)C(c1ccccc1)c1c(O)c2ccccc2oc1=O (stereo unspecified) > 100 µM

Input [N-]=[N+]=Nc1cc(=O)[nH]c2ccccc12 > 100 µM

Input C[Si](C)(C)OC1(C#N)c2ccccc2CCCC12CCCC2 (stereo unspecified) > 100 µM

Input CCN1CCN(c2ccc(NC(=O)Nc3nc4ccc(-c5ccccc5OC)cc4s3)cc2)CC1 3.37 µM

Input O=C1CCCC1CC(CN1CCOCC1)Sc1nnnn1-c1ccccc1 (stereo unspecified) > 100 µM

Input O=C(NC1CCC[C@H]1OC(=O)c1ccccc1)c1ccccc1 (stereo partly specified) > 100 µM

Input O=C(CC(=O)N1N=C(c2ccccc2)C(N=Nc2ccc(S(=O)(=O)CCOS(=O)(=O)O)cc2)C1=O)Nc1ccc(Cl)cc1 (stereo unspecified) > 100 µM

Input O=C1CCC2(O)c3ccccc3C2Cc2ccccc21 (stereo unspecified) > 100 µM

Input CCCCCCCCCCCC(=O)N(CCCCCCCCC)CC(O)C(O)C(OC1OC(CO)C(O)C(O)C1O)C(O)CO (stereo unspecified) 36.1 µM

Input COC(=O)C1=C(C)NC(=S)NC1c1ccc(N(CCCl)CCCl)cc1Cl (stereo unspecified) > 100 µM

Input COc1ccc2c3ccnc(C(F)(F)F)c3n(CCCCN)c2c1 28.7 µM

Input CC(C)C[C@H](NC(=O)[C@H](CC(C)C)NC(=O)[C@@H](Cc1c[nH]c2ccccc12)NC(=O)[C@H](Cc1ccccc1)NC(=O)[C@@H](Cc1c[nH]c2ccccc12)NC(=O)[C@H](CCC(N)=O)NC(=O)[C@@H](CCC(N)=O)NC(=O)[C@@H]1CCCN1C(=O)[C@@H](CCCCN)NC(=O)[C@H]1CCCN1C(=O)[C@H](N)CCCN=C(N)N)C(N)=O (H-[dR][dP][dK]P[dQ]Q[dW]F[dW]LL-NH2) > 100 µM

Input CC(=O)NC1C(OCc2ccccc2)OC(CO)C(O)C1OC(C)C(=O)NC(C(=O)NC(CCC(=O)NCCCNc1ccc([N+](=O)[O-])c2[nH]c3ccccc3c(=O)c12)C(N)=O)C(C)C (stereo unspecified) > 100 µM

* * *

Please respond with reported TGI for every item in the list.
- Tested on: SNB-19 CNS
- PROCEDURE DETAILS: NCI tumour cell line growth inhibition, 48 h
The answer is to be given in µM; state only the numeric part.

# query: TGI of entry CN1CCN(Cc2ccc(NC(=O)c3cncc(C#Cc4ccc(N)nc4)c3)cc2C(F)(F)F)CC1 9.44

Input Oc1ccc(-c2nc3cc(C(F)(F)F)ccc3s2)cc1 31.4

Input COC(=O)N[C@@H]1C[C@H]2CC[C@]1(O[Si](C(C)C)(C(C)C)C(C)C)C(=O)C2 39.5

Input COc1cc2c(cc1OC)C(Cl)C(c1ccc(Br)cc1)=C2Cl (stereo not given) 32

Input O=C1C(c2ccccc2)=C(c2ccccc2)C1(Cl)Cl 32.9

Input C=CCc1c(O)c(C(=O)/C=C/c2ccc(Cl)cc2)c(OC)c2ccoc12 8.15

Input CC1=CC2(C)/C=C(C)/C=C\CC(O)/C=C3/C=CC(=C4C(=O)OC2(CC1C)C4=O)OC3 (stereo not given) 25.9

Input Clc1cnc(Nc2ccc(OCCN3CCCC3)cc2)nc1NCc1ccco1 13.5

Input Cc1nc(N)c(N2CCN(S(=O)(=O)N(Cc3ccccc3)Cc3ccccc3)CC2)c(=O)[nH]1 74.7

Input O=C1OC(OC/C(Br)=C(\Br)COC2OC(=O)C(Cl)=C2Cl)C(Cl)=C1Cl (stereo not given) 34.3

Input O=C(Nc1ccc(Br)cc1)C(=O)C(C(=O)c1ccc(Cl)c(Cl)c1)C1OC(=O)c2ccccc21 (stereo not given) 97.8

Input c1ccc2c(N=NSc3ncnc4nc[nH]c34)c3ccccc3nc2c1 13
